Each entry below lists one item and its recorded self-splicing fitness (ln) value.
- assay overview: self-splicing fitness, log relative to wild type (ln ratio); higher = more splicing; Tetrahymena group I intron in knt gene, E. coli kanamycin selection, DiMSum; sequences stand for … in CUCUCU…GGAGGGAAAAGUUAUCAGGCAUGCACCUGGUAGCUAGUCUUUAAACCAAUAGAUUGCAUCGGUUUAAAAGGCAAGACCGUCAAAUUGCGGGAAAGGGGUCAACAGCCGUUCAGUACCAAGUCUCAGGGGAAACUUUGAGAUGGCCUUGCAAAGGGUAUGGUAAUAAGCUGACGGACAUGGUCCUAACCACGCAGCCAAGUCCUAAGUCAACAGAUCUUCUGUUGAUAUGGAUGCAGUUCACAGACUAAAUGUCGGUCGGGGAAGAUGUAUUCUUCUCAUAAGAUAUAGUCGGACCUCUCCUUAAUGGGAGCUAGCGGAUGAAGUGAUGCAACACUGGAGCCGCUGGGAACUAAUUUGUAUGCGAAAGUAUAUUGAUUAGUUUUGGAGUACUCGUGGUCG;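 further: selection with 25 µg/mL kanamycin versus none on LB agar overnight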
- condition description: 37 °C
measurement name: self-splicing fitness (ln)

>>> experimental_result("CUAUAGCAAUAUUACGAAAG")
-1.01
>>> experimental_result("CCGAAGCAAUAUUACGACGA")
-0.711
>>> experimental_result("CUAUAGCAAUAUUACGAGUA")
-1.62
>>> experimental_result("UUACAGCAAUAUUACGUAUG")
-0.53
>>> experimental_result("UGUCAGCAAUAUUACGAUUU")
0.461
>>> experimental_result("UUAUAGCAAUAUUACGAGUU")
-1.96
>>> experimental_result("GGUCAGCAAUAUUACGGCAC")
0.566
>>> experimental_result("AAGAAGCAAUAUUACGGCCA")
-0.00293
>>> experimental_result("AAUAAGCAAUAUUACGCCCC")
-0.311
>>> experimental_result("UGCCAGCAAUAUUACGACCG")
0.509
>>> experimental_result("GUUGAGCAAUAUUACGGAGU")
-2.7
>>> experimental_result("CCGAAGCAAUAUUACGGGUC")
-3.03
>>> experimental_result("GGUCAGCAAUAUUACGCGUU")
0.0966
>>> experimental_result("CGAUAGCAAUAUUACGCAAU")
-2.26
>>> experimental_result("GGAAAGCAAUAUUACGAACC")
-1.2
>>> experimental_result("CGGAAGCAAUAUUACGCGCA")
-1.08
>>> experimental_result("CCCCAGCAAUAUUACGAGUU")
-2.31
>>> experimental_result("GGGAAGCAAUAUUACGUAAG")
-1.14
>>> experimental_result("CUAUAGCAAUAUUACGCCGU")
-2.6
>>> experimental_result("CAUCAGCAAUAUUACGGUAG")
0.051
>>> experimental_result("UUACAGCAAUAUUACGAAGA")
-0.992
>>> experimental_result("CUGCAGCAAUAUUACGGUAG")
-2.45
>>> experimental_result("CAUCAGCAAUAUUACGCAAC")
-1.59
>>> experimental_result("AGCCAGCAAUAUUACGCAUA")
-1.34
>>> experimental_result("UCCGAGCAAUAUUACGACCU")
-2.74
>>> experimental_result("AUGGAGCAAUAUUACGACUU")
-1.08
>>> experimental_result("CGAAAGCAAUAUUACGUCUC")
-1.15
>>> experimental_result("CGGCAGCAAUAUUACGGCCA")
0.462
>>> experimental_result("UCUGAGCAAUAUUACGCGUA")
0.763
>>> experimental_result("ACUCAGCAAUAUUACGCUUA")
-0.0124
>>> experimental_result("GCAUAGCAAUAUUACGUUUU")
-1.82
>>> experimental_result("GAUGAGCAAUAUUACGGAAU")
-2.66
>>> experimental_result("CGCCAGCAAUAUUACGGUAC")
-1.52
>>> experimental_result("CUAAAGCAAUAUUACGGCCG")
0.575
>>> experimental_result("CCUAAGCAAUAUUACGUGUA")
-1.89
>>> experimental_result("CGGGAGCAAUAUUACGUGCA")
-2.29
>>> experimental_result("UUUUAGCAAUAUUACGACUA")
0.109
>>> experimental_result("UUUAAGCAAUAUUACGAUAA")
0.228
>>> experimental_result("GUCUAGCAAUAUUACGAAGG")
-1.43
>>> experimental_result("UUGCAGCAAUAUUACGUAGA")
-0.271
>>> experimental_result("AUUCAGCAAUAUUACGUGCG")
-0.262
>>> experimental_result("UAUAAGCAAUAUUACGCUUA")
-0.653
>>> experimental_result("CCUCAGCAAUAUUACGGCAA")
-2.41
>>> experimental_result("UAUGAGCAAUAUUACGUUUA")
-1.94
>>> experimental_result("UGUAAGCAAUAUUACGGAGG")
-3.5
>>> experimental_result("CCGCAGCAAUAUUACGCAAG")
-1.18
>>> experimental_result("UUCAAGCAAUAUUACGCUGG")
-3.05
>>> experimental_result("CCUAAGCAAUAUUACGGCAA")
-2.91
>>> experimental_result("AACUAGCAAUAUUACGUACU")
0.151
>>> experimental_result("CAGGAGCAAUAUUACGACUC")
-2.14
>>> experimental_result("UGCUAGCAAUAUUACGCCUG")
0.294
>>> experimental_result("CUUUAGCAAUAUUACGGUAC")
-3.08
>>> experimental_result("GCAUAGCAAUAUUACGUAUC")
-2.49
>>> experimental_result("GUAAAGCAAUAUUACGAGAG")
-3.37
>>> experimental_result("CCCAAGCAAUAUUACGAUGC")
-2.15
>>> experimental_result("AAGGAGCAAUAUUACGGGGC")
-2.34
>>> experimental_result("AGGGAGCAAUAUUACGGGUC")
-3.12
>>> experimental_result("GGAGAGCAAUAUUACGAGGC")
-1.95
>>> experimental_result("UGAGAGCAAUAUUACGAGAC")
-2.59
>>> experimental_result("AUAAAGCAAUAUUACGAAUU")
-0.731
>>> experimental_result("CAAGAGCAAUAUUACGCGGG")
-2.89
